test: amyloid nucleation score (Sup35N fusion, yeast selection) (log enrichment); library NNK1; higher = more nucleation; inactive = no reads after selection;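 note: zero at mode of non-aggregating sequences after 7 days selection at 30°C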
Returns t if the recorded amyloid nucleation score is greater than or equal to -0.1, and f otherwise.

- substance: "GGGGNVGGFFMWCSVYSAGV"
  discreteLabel: "f"
- substance: "NISPISYKIVVTIYSYFWLS"
  discreteLabel: "t"
- substance: "SWSSVQSAVKGHPLGGNTGR"
  discreteLabel: "f"
- substance: "LAQSGIDIYLRKGMDARKMR"
  discreteLabel: "f"
- substance: "WTYRQLKSAGKEHVYFLKVR"
  discreteLabel: "t"

Item `PNAVNIIYDCAQLLFMRTMR` with amyloid nucleation score of -0.1 or above?
f

Item `NRLKFSLV` with amyloid nucleation score of -0.1 or above?
f

Item `IKTNHKDNLWNNFNLYDKAH` with amyloid nucleation score of -0.1 or above?
t

Item `QYLLFGYNYNAWERRDLALW` with amyloid nucleation score of -0.1 or above?
t

Item `VLVKQGVMA` with amyloid nucleation score of -0.1 or above?
t

Item `LGHGHIDGQYKGYRVKWTYD` with amyloid nucleation score of -0.1 or above?
f

Item `SVANGALSRLAYIKRYRVWW` with amyloid nucleation score of -0.1 or above?
t
